Reference source: PubChem BioAssay (NCATS)

# System: CP192
# experiment: qHTS profiling for inhibitors of Plasmodium falciparum proliferation (AID 504749); further: nearly all actives have a fitted effect of over 60% in size
# condition summary: P. falciparum in erythrocytes, SYBR Green DNA, 72 h; series mostly up to 28.7 µM
# Description: NIH National Institute of Allergy and Infectious Diseases [NIAID] NIH Chemical Genomics Center [NCGC] […] Because mature erythrocytes lack DNA, only Plasmodium-derived DNA is detected. NCGC Assay Protocol Summary: The SYBR Green viability assay was adapted from a method described previously (Plouffe et al., 2008). […] The following morning, fluorescence intensity at 485(14) nm excitation and 535(25) nm emission wavelengths was measured on an EnVision (Perkin Elmer) plate reader. […]
Inconclusive results are not listed. Calls of active or inactive are those of the source. The call rests on the fitted dose curve; in most records, active means well fitted inhibition curve with a large enough effect; inconclusive means small, poorly fitted or top-dose-only effect; inactive means flat fitted curve, though single readings scatter. Numbered stars: 1 amine (or outer) side, 2 acyl side, 3 side chain; on linkers, the order of the positions; unused ones are H or OH. Bridge positions count the residues as written; N and C are the ends. Square brackets hold non-standard residues; d marks the D form. Peptide text beside a SMILES is read from it. * marks the point of attachment. ξ: configuration not given here. ΔAla(Z-3-ureido) = NC(=O)N/C=C(\N)C(=O)O; X2 = NC1=NC(O)CC(C(N[*:1])C(=O)[*:2])N1; ξβ3hOrn = NCCCC(N)CC(=O)*; Dap = NC[CH](N)C(=O)O

- molecule: "NCCCC(N)CC(=O)NC1CNC(=O)C(C2CC(O)N=C(N)N2)NC(=O)/C(=C/NC(N)=O)NC(=O)C(CO)NC(=O)C(CO)NC1=O (stereo not drawn) (ξβ3hOrn-[Dap]SS[ΔAla(Z-3-ureido)][X2]; lactam 1-C; configuration not given here)"
  outcome: "inactive"
- molecule: "CC(=O)OCC1=C(C(=O)O)N2C(=O)C(NC(=O)Cc3ccccc3)C2SC1 (stereo not drawn)"
  outcome: "inactive"
- molecule: "CC(C)C[C@H](NC(=O)[C@@H](Cc1c[nH]c2ccccc12)NC(=O)[C@@H](Cc1ccc(O)cc1)NC(=O)[C@@H](CO)NC(=O)[C@@H](Cc1c[nH]c2ccccc12)NC(=O)C(Cc1cnc[nH]1)NC(=O)C1CCC(=O)N1)C(=O)N[C@@H](CCCN=C(N)N)C(=O)N1CCC[C@@H]1C(=O)NCC(N)=O (stereo partly drawn)"
  outcome: "inactive"
